Recorded values, source patent US7985836B2.

Each entry below lists one item and its recorded CC50 value.
# Tested on: drug-resistant KBv
# measurement.protocol: Anticancer/cytotoxicity MTT assay, KBv cells
# Format: cell-based
# condition.summary: peptide concentration that kills 50% of the cells, 68 hours of exposure, read-out: KBv LC50
Ends that are not written are not given here.
Give the quantity in µM, number only.

Here are 2 substances together with their reported answers.
# substance, unit.string, CC50
rows = [
    ("FKRIVQRIKDFLRNLV-NH2 [LL-37(17-32), FKRIVQRIKDFLRNLV]", "µM", 30),
    ("FKRIVQRIKDFLR-NH2 [LL-37(17-29), FKRIVQRIKDFLR]", "µM", 60),
]

--- query ---
Record request: CC50 value, item IGKEFKRIVQRIKDFLRNLVPRTES [LL-37(13-37)]
39
